experiment: protein stability index of a GFP-peptide fusion (GPS, HEK-293T) (PSI 1-6); higher = more stable; details: treatment: MLN4924 1 uM, 8 h; c terminus: a fixed tail appended;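 note: 24-mer peptide tiles fused after GFP, lentivirally expressed, FACS-sorted into six equal bins by GFP/DsRed ratio, decoded by Illumina sequencing, PSI is the read-weighted mean bin number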
Please enter Condition met where protein stability index is greater than or equal to 4, and Condition not met where it is lower.

API: above_or_equal(metric=protein stability index, cutoff=4) for item VPGHRSERAIRTQPKQLIVDDLKG [SPRY1] Condition met

API: above_or_equal(metric=protein stability index, cutoff=4) for item VVNTDHGSPEQLQIPVTDSGRHIL [SDE2] Condition met

API: above_or_equal(metric=protein stability index, cutoff=4) for item SESETSTMAAKKNRQSSDKQNGRV [C18orf25] Condition met

API: above_or_equal(metric=protein stability index, cutoff=4) for item KQYKAVVYSNTIQSIIAIIRAMGR [GNAI1] Condition not met

API: above_or_equal(metric=protein stability index, cutoff=4) for item IIDSSRSVNTHDYAKVKEFIVDIL [MATN2] Condition not met

API: above_or_equal(metric=protein stability index, cutoff=4) for item KERKKREERERKRRKEEEVQQQKL [FAF2] Condition met
